This collection of values is drawn from BindingDB's records for patent US11802108.

Target: Peptidyl-prolyl cis-trans isomerase A (Homo sapiens, UniProt P62937)
Sequence (P62937 whole entry): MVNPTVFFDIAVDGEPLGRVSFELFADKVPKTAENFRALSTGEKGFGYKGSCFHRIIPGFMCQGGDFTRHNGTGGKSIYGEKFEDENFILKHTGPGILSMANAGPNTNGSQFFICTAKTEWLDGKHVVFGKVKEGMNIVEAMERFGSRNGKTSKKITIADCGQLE
Assay: Isothermal Titration Calorimetry (ITC)
pKd: −log10 of the molar value.

structureNotation: CCOC(=O)CNC(=O)N(Cc1ccc(N)cc1)Cc1cn(CC(=O)OCC)nn1
targetOrTestSystem: Peptidyl-prolyl cis-trans isomerase A (Homo sapiens, UniProt P62937)
pKd: < 3.22
